From: patent US10590128B2

- tested_target: human dopamine D3 receptor (hD3R) (Homo sapiens, UniProt P35462)
- Sequence (P35462 whole entry): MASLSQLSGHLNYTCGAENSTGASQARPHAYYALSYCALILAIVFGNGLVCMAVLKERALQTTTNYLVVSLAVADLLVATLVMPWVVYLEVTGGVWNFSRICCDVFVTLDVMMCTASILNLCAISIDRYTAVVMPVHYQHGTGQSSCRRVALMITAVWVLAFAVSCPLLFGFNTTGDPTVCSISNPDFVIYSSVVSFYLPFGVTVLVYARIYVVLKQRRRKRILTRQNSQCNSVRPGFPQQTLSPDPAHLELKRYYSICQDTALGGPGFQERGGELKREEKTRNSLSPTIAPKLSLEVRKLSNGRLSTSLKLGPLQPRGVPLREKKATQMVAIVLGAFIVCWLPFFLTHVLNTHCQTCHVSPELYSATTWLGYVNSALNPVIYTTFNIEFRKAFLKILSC
- assay_info: Human D3 receptor binding assay ([^3H]-7-OH-DPAT)
- assay_conditions: CHO cells expressing hD3R, geometric mean of 2-5 determinations unless marked b (single determination), read-out: hD3 in CHO cells Ki
pKi listing for selected compounds.
// pKi: -log10(molar conc.)

Which pKi value belongs to COc1nc2c(cc1NS(=O)(=O)c1ccc([C@H]3CCCO3)cc1)CCN(C)CC2 ?
8.52

###

Listed molecules paired with reported pKi
- tested_target: human dopamine D2 receptor (hD2R) (Homo sapiens, UniProt P14416)
- Sequence (P14416 whole entry): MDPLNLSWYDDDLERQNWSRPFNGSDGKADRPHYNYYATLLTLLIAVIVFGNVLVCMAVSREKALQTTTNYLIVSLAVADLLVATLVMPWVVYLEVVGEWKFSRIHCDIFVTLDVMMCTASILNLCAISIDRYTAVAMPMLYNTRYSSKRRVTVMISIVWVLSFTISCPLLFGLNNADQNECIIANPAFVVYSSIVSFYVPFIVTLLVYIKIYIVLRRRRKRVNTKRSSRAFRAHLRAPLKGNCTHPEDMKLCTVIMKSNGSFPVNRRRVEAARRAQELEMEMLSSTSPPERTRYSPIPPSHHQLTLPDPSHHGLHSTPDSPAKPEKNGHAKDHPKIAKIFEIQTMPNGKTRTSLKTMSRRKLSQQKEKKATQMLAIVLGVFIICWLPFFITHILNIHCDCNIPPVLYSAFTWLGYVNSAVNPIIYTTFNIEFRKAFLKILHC
- assay_info: Human D2 receptor binding assay ([^3H]-Spiperone)
- assay_conditions: CHO cells expressing hD2R, geometric mean of 2-5 determinations unless marked b (single determination)
Worth noting: pKi values are minus log10 of concentrations stated in mol/L.

Could you share which pKi value was measured for CCN1CCc2cc(NS(=O)(=O)c3ccc([C@H]4C[C@H](OC)C4)cc3)c(OC)nc2CC1 [Example 68] ?
6.47

# pKi lookup, item COc1nc2c(cc1NS(=O)(=O)c1ccc(C3CCOC(C)C3)cc1)CCN(C)CC2 (single isomer, unassigned) [Example 88]
6.19

###

- tested_target: human dopamine D3 receptor (hD3R) (Homo sapiens, UniProt P35462)
- assay_info: Human D3 receptor binding assay ([^3H]-7-OH-DPAT)
- assay_conditions: CHO cells expressing hD3R, geometric mean of 2-5 determinations unless marked b (single determination), read-out: hD3 in CHO cells Ki
- Procedure: Human D2 Receptor and Human D3 Receptor Binding Assays: These determined ligand and tissue concentrations were utilized in time course studies to determine linearity and equilibrium conditions for binding. […] The hD2R assay buffer contains 50 mM Tris (pH 7.4 @ 37° C.), 100 mM NaCl and 1 mM MgCl2. […] Non-specific binding was determined by radioligand binding in the presence of a saturating concentration of Haldol (10 μM). […] Ki values were then calculated according to the Cheng-Prusoff equation: […]
endpoint: Ki (nM)
Record the value in nM, omitting the unit from your answer.

# count of solved cases: 4
record_smiles: COc1nc2c(cc1NS(=O)(=O)c1cnc(C3CCC3)c(F)c1)CCN(C)CC2
Ki, nM: 4.2
--
record_smiles: COc1nc2c(cc1NS(=O)(=O)c1ccc([C@@H]3CCCO3)cc1)CCN(C)CC2
Ki, nM: 4.01
--
record_smiles: CCCN1CCc2cc(NS(=O)(=O)c3ccc(C)cc3)c(OC)nc2CC1
Ki, nM: 2.43
--
record_smiles: COc1nc2c(cc1NS(=O)(=O)c1cnc(OC3CCC3)nc1)CCN(C)CC2
Ki, nM: 7.17

Which Ki is listed for COc1nc2c(cc1NS(=O)(=O)c1ccc(O[C@@H]3CCOC3)cc1)CCN(C)CC2 ?
3.21

If you can, please state the reported Ki value of COc1nc2c(cc1NS(=O)(=O)c1ccc(C(C)C)cc1)CCN(CCCF)CC2 .
2.25

Record request: Ki value, item CCCN1CCc2cc(NS(=O)(=O)c3ccc(C(C)C)cc3)c(OC)nc2CC1
0.88

Quick one: Ki for COc1nc2c(cc1NS(=O)(=O)c1ccc([C@H]3CCCCO3)c(C)c1)CCN(C)CC2 ?
0.39

###

- tested_target: human dopamine D3 receptor (hD3R) (Homo sapiens)
- assay_info: Human D3 receptor binding assay ([^3H]-7-OH-DPAT)
- assay_conditions: CHO cells expressing hD3R, geometric mean of 2-5 determinations unless marked b (single determination), read-out: hD3 in CHO cells Ki
endpoint: pKi
Would you please state pKi, meaning minus log10 of the concentration in mol/L, as a bare number?

record_smiles: COc1nc2c(cc1NS(=O)(=O)c1ccc(OC3CCCC3)nc1C)CCN(C)CC2
quantitative_result: 8.91

I am curious: what pKi value has been reported for CCN1CCc2cc(NS(=O)(=O)c3ccc(C4(C)CCOCC4)cc3)c(OC)nc2CC1 ?
8.32

Record request: pKi value, item COc1nc2c(cc1NS(=O)(=O)c1ccc(C3(F)CCOCC3)cc1)CCN(C)CC2
8.75

Fill in: pKi of CCN1CCc2cc(NS(=O)(=O)c3ccc([C@H]4C[C@@H](OCCF)C4)cc3)c(OC)nc2CC1 is ___
8.62
